Biological target: T1, recombinant human CEACAM5 (human, UniProt P06731 35-685, limits assumed)
T1 construct: Immobilised by amine coupling on a CM5 chip
T1 sequence (looked up): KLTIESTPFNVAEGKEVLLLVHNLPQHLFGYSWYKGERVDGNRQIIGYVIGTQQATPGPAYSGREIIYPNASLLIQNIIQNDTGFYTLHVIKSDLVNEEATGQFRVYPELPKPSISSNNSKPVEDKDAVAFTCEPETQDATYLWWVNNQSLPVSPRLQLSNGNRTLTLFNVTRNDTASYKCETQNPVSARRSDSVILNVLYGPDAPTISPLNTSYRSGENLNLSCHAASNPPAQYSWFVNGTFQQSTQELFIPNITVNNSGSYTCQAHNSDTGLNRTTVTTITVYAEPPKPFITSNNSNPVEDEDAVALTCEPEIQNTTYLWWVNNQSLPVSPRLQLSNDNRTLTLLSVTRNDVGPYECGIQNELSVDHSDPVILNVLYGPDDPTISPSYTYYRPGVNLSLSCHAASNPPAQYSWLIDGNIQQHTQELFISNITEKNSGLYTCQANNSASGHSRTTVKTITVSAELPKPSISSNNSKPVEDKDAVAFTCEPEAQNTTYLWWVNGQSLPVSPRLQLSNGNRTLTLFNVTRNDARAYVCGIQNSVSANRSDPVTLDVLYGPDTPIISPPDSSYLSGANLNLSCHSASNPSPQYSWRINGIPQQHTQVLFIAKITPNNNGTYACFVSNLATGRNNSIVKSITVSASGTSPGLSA
Assay: SPR Biacore 8K+, CEACAM5 amine-coupled on CM5, ISVD analyte, 1:1 fit
Assign 1.0 to entries whose kon meets or exceeds 300000 M⁻¹ s⁻¹; assign 0.0 to the rest.

T028501802 (VHH, K75R vs precursor T028501789; also called A0315007E07(K75R)) VHH: EVQLVESGGGVVQPGGSLRLSCAASGLTFSTYTMGWFRQAPGKEREFVAAIIWSGSNTYYADSVKGRFTISRDNARNTVYLQMNSLRPEDTALYYCAAQHFGPIGLTTRGYHYWGQGTLVTVSS :: 1.0
T028501820 (VHH, K43R vs precursor T028501817; also called A0315024B02(M43R, Q64K, K83R)) VHH: EVQLVESGGGVVQPGGSLRLSCAASGHTFSEYALGWFRQAPGREREFVAAINWGGGWTYYADSVKGRFTISRDNAKNTLYLQMNSLRPEDTALYYCAASSDYAGGNPTGYPYWGQGTLVTVSS :: 0.0
T028501795 (VHH, K64E vs precursor T028501789; also called A0315007E07(K64E)) VHH: EVQLVESGGGVVQPGGSLRLSCAASGLTFSTYTMGWFRQAPGKEREFVAAIIWSGSNTYYADSVEGRFTISRDNAKNTVYLQMNSLRPEDTALYYCAAQHFGPIGLTTRGYHYWGQGTLVTVSS :: 0.0

Input: Record T028501799 (VHH, K64A vs precursor T028501789; also called A0315007E07(K64A)) VHH: EVQLVESGGGVVQPGGSLRLSCAASGLTFSTYTMGWFRQAPGKEREFVAAIIWSGSNTYYADSVAGRFTISRDNAKNTVYLQMNSLRPEDTALYYCAAQHFGPIGLTTRGYHYWGQGTLVTVSS ; criterion: kon no lower than 300000 M⁻¹ s⁻¹. Met?
Output: 1.0

Input: Record T028501789 (VHH, also called A031500384; A0315007E07(L11V, S76N, N82bS, E83R, V89L, H91Y, N101H)) VHH: EVQLVESGGGVVQPGGSLRLSCAASGLTFSTYTMGWFRQAPGKEREFVAAIIWSGSNTYYADSVKGRFTISRDNAKNTVYLQMNSLRPEDTALYYCAAQHFGPIGLTTRGYHYWGQGTLVTVSS ; criterion: kon no lower than 300000 M⁻¹ s⁻¹. Met?
Output: 1.0

Input: Record T028501801 (VHH, K75Q vs precursor T028501789; also called A0315007E07(K75Q)) VHH: EVQLVESGGGVVQPGGSLRLSCAASGLTFSTYTMGWFRQAPGKEREFVAAIIWSGSNTYYADSVKGRFTISRDNAQNTVYLQMNSLRPEDTALYYCAAQHFGPIGLTTRGYHYWGQGTLVTVSS ; criterion: kon no lower than 300000 M⁻¹ s⁻¹. Met?
Output: 1.0

Input: Record T028501793 (VHH, K43H vs precursor T028501789; also called A0315007E07(K43H)) VHH: EVQLVESGGGVVQPGGSLRLSCAASGLTFSTYTMGWFRQAPGHEREFVAAIIWSGSNTYYADSVKGRFTISRDNAKNTVYLQMNSLRPEDTALYYCAAQHFGPIGLTTRGYHYWGQGTLVTVSS ; criterion: kon no lower than 300000 M⁻¹ s⁻¹. Met?
Output: 1.0
